- Test system: MDA-MB-435
- test_details: NCI tumour cell line growth inhibition, 48 h
Field: log10 of TGI. Provide a value for each of the compounds that follow.
Please note: log10 values; quantity TGI; unit µM.

Solved cases below.
CC(=O)OC1COC(S[As](C)C)C(OC(C)=O)C1OC(C)=O (centres undefined) ... -0.45
CCC1CC2CN3CCc4c([nH]c5c(-c6c(OC)ccc7c8c([nH]c67)[C@]6(C(=O)OC)CC7CC(CC)C6N(CC8)C7)c(O)ccc45)[C@](C(=O)OC)(C2)C13 (some centres undefined) ... 1.37
CC(=O)O[C@H]1CC[C@]2(C)[C@H]3CC[C@@H]4[C@H]5[C@H](C(C)C)CC[C@]5(C(=O)OCC(CO)(CO)N=C(N)N)CC[C@@]4(C)[C@]3(C)CC[C@H]2C1(C)C ... 0.49
O=C1c2ccccc2-c2nc(-c3cccnc3)cc3c2c1nc1ccccc13 ... 1.54

Output measured log10 of TGI for this item: O=C(COc1cccc(/C=C2\COc3ccccc3C2=O)c1)Nc1nccs1
0.88
